experiment: Acute toxicity, single oral administration; conditions: mouse, in vivo; single oral administration to mice; read-out: Toxicity LD 50
Measured LD50, listed per entry for reference.

Examples with answers:
{"columns": ["compound", "LD50"],
 "data": [
  ["COc1ccc(C(=O)C#CCO)c(OC)c1OC", "156 to 312 mg/kg"],
  ["CSc1ccc(C(=O)C#CCO)cc1", "156 to 312 mg/kg"]
]}

### Prompt # LD50 lookup, item O=C(C#CCO)c1ccc(Cl)cc1
### Response 80 to 156 mg/kg

### Prompt Using the record for COC(=O)C#CC(=O)c1ccc(O)cc1 [E, methyl 3-(4-hydroxybenzoyl)propiolate] , report its LD50.
### Response 312 to 625 mg/kg

### Prompt Please look up its LD50: COc1cc(C(=O)C#CC(=O)N(C)C)cc(OC)c1OC
### Response 312 to 625 mg/kg

### Prompt What does the record list as LD50 for COC(=O)C#CC(=O)c1cc(OC)c(OC)c(OC)c1 ?
### Response > 5000 mg/kg

----------
test: Acute toxicity, single oral administration; conditions: mouse, in vivo; single oral administration to mice; read-out: Toxicity LD 50
assayEndpoint: LD50

Recorded LD50, per entry:
{"columns": ["molecule", "LD50"],
 "data": [
  ["COC(=O)C#CC(=O)c1ccc(F)cc1 [M, methyl 3-(4-fluorobenzoyl)propiolate]", "1250 to 2500 mg/kg"],
  ["COc1ccc(C(=O)C#CC(=O)O)cc1 [C, 3-(4-methoxybenzoyl)propiolic acid]", "625 to 1250 mg/kg"],
  ["COCCOCCOC(=O)C#CC(=O)c1cc(OC)c(OC)c(OC)c1 [F]", "> 5000 mg/kg"],
  ["COC(=O)C#CC(O)c1ccc2c(c1)OCO2 (stereo not drawn) [Aa]", "312 to 625 mg/kg"],
  ["COCCOCCOC(=O)C#CC(O)c1cc(OC)c(OC)c(OC)c1 (stereo not drawn) [Bb]", "625 to 1250 mg/kg"]
]}

Okay, now this molecule:
### Prompt What value of LD50 has been recorded for this entry: COc1cc(C(=O)C#CC(=O)O)cc(OC)c1OC [L]
### Response 1000 to 2000 mg/kg
